Species: Oryctolagus cuniculus
Assay explanation: Blockade of calcium-evoked contractions evaluated in depolarized rabbit aortic strips
Type: functional
Condition label: Aorta
Measured attribute: pIC50
To interpret pIC50, take it as minus log10 of a concentration measured in moles per litre.

Use these answered entries as a reference point.
>  <Compound>
CC1=NC(C)=C(C(=O)OCCCN2C(=O)c3ccccc3S2(=O)=O)C(c2ccccc2[N+](=O)[O-])/C1=C(\O)OCC1CCCCO1 (stereo not given)

>  <pIC50>
7.94

$$$$
>  <Compound>
COCCO/C(O)=C1\C(C)=NC(C)=C(C(=O)OCCN2C(=O)c3ccccc3S2(=O)=O)C1c1ccccc1C(F)(F)F (stereo not given)

>  <pIC50>
8.85

$$$$
>  <Compound>
CC1=NC(C)=C(C(=O)OCCN2C(=O)c3ccccc3S2(=O)=O)C(c2ccccc2C(F)(F)F)/C1=C(\O)OCC1CCCO1 (stereo not given)

>  <pIC50>
8.60

$$$$
>  <Compound>
CC1=NC(C)=C(C(=O)OCCCN2C(=O)c3ccccc3S2(=O)=O)C(c2cccc(Cl)c2Cl)/C1=C(\O)OCC1CCCCO1 (stereo not given)

>  <pIC50>
8.40

$$$$
>  <Compound>
CC1=NC(C)=C(C(=O)OCCN2C(=O)c3ccccc3S2(=O)=O)C(c2cccc([N+](=O)[O-])c2)/C1=C(\O)OC(C)C (stereo not given)

>  <pIC50>
9.52

$$$$

Problem: Which pIC50 value is on record for COCCO/C(O)=C1\C(C)=NC(C)=C(C(=O)OCCCN2C(=O)c3ccccc3S2(=O)=O)C1c1cccc([N+](=O)[O-])c1 (stereo not given) ?
Solution: 8.17

Problem: Endpoint output: pIC50 of CC1=NC(C)=C(C(=O)OCCN2C(=O)c3ccccc3S2(=O)=O)C(c2ccccc2Cl)/C1=C(\O)OC(C)(C)C (stereo not given) . Value?
Solution: 8.35

Problem: Could you share which pIC50 value was measured for CC1=NC(C)=C(C(=O)OCCN2C(=O)c3ccccc3S2(=O)=O)C(c2cccc(Cl)c2Cl)/C1=C(\O)OCC1CCCO1 (stereo not given) ?
Solution: 8.68

Problem: Quick one: pIC50 of CO/C(O)=C1\C(C)=NC(C)=C(C(=O)OCCN2C(=O)c3ccccc3S2(=O)=O)C1c1cccc(Cl)c1Cl (stereo not given) ?
Solution: 7.76

Problem: If you can, please state the reported pIC50 value of COCCO/C(O)=C1\C(C)=NC(C)=C(C(=O)OCCN2C(=O)c3ccccc3S2(=O)=O)C1c1cccc(Cl)c1Cl (stereo not given) .
Solution: 8.15

Problem: What does the record list as pIC50 for CC1=NC(C)=C(C(=O)OCCN2C(=O)c3ccccc3S2(=O)=O)C(c2cccc([N+](=O)[O-])c2)/C1=C(\O)OC(C)(C)C (stereo not given) ?
Solution: 8.80

Problem: Give its pIC50 value. Item: CC1=NC(C)=C(C(=O)OCCCN2C(=O)c3ccccc3S2(=O)=O)C(c2ccccc2C(F)(F)F)/C1=C(\O)OCC1CCCCO1 (stereo not given)
Solution: 8.85

Problem: // pIC50 lookup, key: COCCO/C(O)=C1\C(C)=NC(C)=C(C(=O)OCCN2C(=O)c3ccccc3S2(=O)=O)C1c1ccccc1Cl (stereo not given)
Solution: 7.64

Problem: For the compound shown here, CC1=NC(C)=C(C(=O)OCCN2C(=O)c3ccccc3S2(=O)=O)C(c2ccccc2Cl)/C1=C(\O)OCC1CCCCO1 (stereo not given) , give the reported pIC50.
Solution: 6.46
